Test: Solubility of ingenol-3-angelate in co-solvents
Type: physicochemical
Conditions: organic solvent or mixture; co-solvent diethylene glycol monoethyl ether; read-out: solubility in diethylene glycol monoethyl ether
Attribute measured: solubility

Entry C/C=C(/C)C(=O)O[C@H]1C(C)=C[C@]23C(=O)[C@@H](C=C(CO)[C@@H](O)[C@]12O)[C@H]1[C@@H](C[C@H]3C)C1(C)C [ingenol-3-angelate] has what solubility? 57 to 114 mg/mL

###

Assay: Solubility of ingenol-3-angelate in co-solvents
Format: physicochemical
Details: organic solvent or mixture; co-solvent isopropanol; read-out: solubility in isopropanol
From the text: In order to effect a highly efficient dissolution of the ingenol derivative it may be favourably to add a co-solvent to the composition. […]
Attribute measured: solubility

Item C/C=C(/C)C(=O)O[C@H]1C(C)=C[C@]23C(=O)[C@@H](C=C(CO)[C@@H](O)[C@]12O)[C@H]1[C@@H](C[C@H]3C)C1(C)C [ingenol-3-angelate] has what recorded solubility? 225 to 248 mg/mL
